Provenance of the data: patent US11034725B2

Molecular target: UniProtKB Q8NBP7
Sequence (Q8NBP7 153-692): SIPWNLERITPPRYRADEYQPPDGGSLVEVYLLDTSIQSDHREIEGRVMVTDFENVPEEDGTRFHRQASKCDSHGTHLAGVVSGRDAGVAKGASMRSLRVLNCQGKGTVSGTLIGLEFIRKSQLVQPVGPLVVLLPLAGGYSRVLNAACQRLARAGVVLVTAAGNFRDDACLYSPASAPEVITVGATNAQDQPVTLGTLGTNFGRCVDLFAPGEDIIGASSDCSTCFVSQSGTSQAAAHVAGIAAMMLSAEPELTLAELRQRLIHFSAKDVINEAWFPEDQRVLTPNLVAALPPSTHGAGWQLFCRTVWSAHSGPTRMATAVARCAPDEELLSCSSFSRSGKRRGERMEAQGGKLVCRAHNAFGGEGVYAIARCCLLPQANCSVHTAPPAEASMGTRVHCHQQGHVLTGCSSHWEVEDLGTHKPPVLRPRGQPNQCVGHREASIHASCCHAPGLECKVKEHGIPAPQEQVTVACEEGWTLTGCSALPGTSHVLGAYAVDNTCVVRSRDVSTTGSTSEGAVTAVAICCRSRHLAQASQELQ
Sequence (Q8NBP7 31-152 partner limits assumed): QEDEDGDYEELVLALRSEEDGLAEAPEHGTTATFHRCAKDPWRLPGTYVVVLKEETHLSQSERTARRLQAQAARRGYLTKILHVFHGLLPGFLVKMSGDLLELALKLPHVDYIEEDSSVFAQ
Test: PCSK9/EGF(A) TR-FRET binding assay
Details: TR-FRET; Table 8E, additional compounds; read-out: PCSK9/EGF(A) IC50
Numbered stars: 1 amine (or outer) side, 2 acyl side, 3 side chain; on linkers, the order of the positions; unused ones are H or OH. Square brackets hold non-standard residues; d marks the D form. Peptide text beside a SMILES is read from it. * marks the point of attachment. Trp(6-Me) = Cc1ccc2c(C[C@H](N)C(=O)O)c[nH]c2c1; Butanoyl(4-(4-HOPh)) = O=C(CCCc1ccc(O)cc1)*; hArg = N=C(N)NCCCC[C@H](N)C(=O)O; X39 = O=C(C1CCC(c2ccccc2)CC1)*; Suc = O=C(CCC(=O)[*:2])[*:1]; Morpholide = C1CN(*)CCO1; X27 = O=C(CCCN1CCOCC1)*; Pentanoyl = CCCCC(=O)*; X23 = NC(=O)NCCC(=O)*
recorded-metric: IC50

CC[C@H](C)[C@H](NC(=O)[C@H](CCCCNC(=N)N)NC(=O)[C@@H](NC(=O)[C@H](CC(C)C)NC(=O)[C@H](CC(N)=O)NC(=O)[C@H](Cc1c[nH]c2ccccc12)NC(=O)CCCc1ccc(O)cc1)C(C)C)C(=O)NCC(=O)N[C@@H](CC(C)C)C(=O)N[C@@H](CC(C)C)C(=O)N[C@@H](CCCNC(=N)N)C(N)=O [Compound 220] ({Butanoyl(4-(4-HOPh))}-WNLV[hArg]IGLLR-NH2); 37 µM
CC[C@H](C)[C@H](NC(=O)[C@H](CCCNC(=N)N)NC(=O)[C@@H](NC(=O)[C@H](CC(C)C)NC(=O)[C@H](CC(N)=O)NC(=O)[C@H](Cc1c[nH]c2ccccc12)NC(=O)CCCN1CCOCC1)C(C)C)C(=O)NCC(=O)N[C@@H](CC(C)C)C(=O)N[C@H](C(=O)N[C@@H](CCCNC(=N)N)C(N)=O)[C@@H](C)O [Compound 162] (X27-WNLVRIGLTR-NH2); ≥ 50 µM
CCCCC(=O)N[C@@H](Cc1c[nH]c2cc(C)ccc12)C(=O)N[C@@H](CC(N)=O)C(=O)N[C@@H](CC(C)C)C(=O)N[C@H](C(=O)N[C@@H](CCCNC(=N)N)C(=O)N[C@H](C(=O)NCC(=O)N[C@@H](CC(C)C)C(=O)N[C@H](C(=O)N[C@@H](CCCNC(=N)N)C(N)=O)[C@@H](C)O)[C@@H](C)CC)C(C)C [Compound 175] (Pentanoyl-[Trp(6-Me)]NLVRIGLTR-NH2); ≥ 50 µM
CC[C@H](C)[C@H](NC(=O)[C@H](CCCNC(=N)N)NC(=O)[C@@H](NC(=O)[C@H](CC(C)C)NC(=O)[C@H](CC(N)=O)NC(=O)[C@H](Cc1c[nH]c2ccccc12)NC(=O)C1CCC(c2ccccc2)CC1)C(C)C)C(=O)NCC(=O)N[C@@H](CC(C)C)C(=O)N[C@H](C(=O)N[C@@H](CCCNC(=N)N)C(N)=O)[C@@H](C)O (stereo partly drawn) [Compound 185] (X39-WNLVRIGLTR-NH2); 5.7 µM
CC[C@H](C)[C@H](NC(=O)[C@H](CCCNC(=N)N)NC(=O)[C@@H](NC(=O)[C@H](CC(C)C)NC(=O)[C@H](CC(N)=O)NC(=O)[C@H](Cc1c[nH]c2ccccc12)NC(=O)CCNC(N)=O)C(C)C)C(=O)NCC(=O)N[C@@H](CC(C)C)C(=O)N[C@@H](CC(C)C)C(=O)N[C@@H](CCCNC(=N)N)C(N)=O [Compound 141] (X23-WNLVRIGLLR-NH2); ≥ 50 µM

Exam item: What IC50 value was documented for this molecule, CC[C@H](C)[C@H](NC(=O)[C@H](CCCCNC(=N)N)NC(=O)[C@@H](NC(=O)[C@H](CC(C)C)NC(=O)[C@H](CC(N)=O)NC(=O)[C@H](Cc1c[nH]c2ccccc12)NC(=O)CCC(=O)N1CCOCC1)C(C)C)C(=O)NCC(=O)N[C@@H](CC(C)C)C(=O)N[C@@H](CC(C)C)C(=O)N[C@@H](CCCNC(=N)N)C(N)=O [Compound 194] ({Morpholide-Suc}-WNLV[hArg]IGLLR-NH2) ?
Marked response: ≥ 50 µM
